Test system: PBMC from allergic donors
Assay: IL-5 ELISPOT with extract-stimulated short-term lines
Type: cell-based, human
Details: positive donor/peptide response; each table line is one donor
Experimental: Spots were counted by computer-assisted image analysis (Zeiss, KS-ELISPOT reader, Munich, Germany). Each assay was performed in triplicate. The level of statistical significance was determined with a Student's t-test using the mean of triplicate values of the response against relevant pools or individual peptides versus the response against the DMSO control.
So I've got a bunch of compounds here, and I need their Response (SFC/10^6) IL-5 values.
Write the value in SFC/10^6 as a bare number.

## Input // Response (SFC/10^6) IL-5 lookup, key: "CC[C@H](C)[C@H](NC(=O)[C@H](C)NC(=O)[C@H](CCCCN)NC(=O)[C@H](CC(N)=O)NC(=O)[C@H](Cc1ccccc1)NC(=O)[C@H](C)NC(=O)CNC(=O)[C@H](CCC(=O)O)NC(=O)[C@H](Cc1ccccc1)NC(=O)[C@@H](NC(=O)[C@@H](NC(=O)[C@H](Cc1ccccc1)NC(=O)[C@H](CCCCN)NC(=O)[C@H](CC(=O)O)NC(=O)[C@@H](N)CC(N)=O)[C@@H](C)O)C(C)C)C(=O)O"
## Output 400

## Input Consider the compound "CC[C@H](C)[C@H](NC(=O)[C@H](Cc1ccccc1)NC(=O)[C@H](C)NC(=O)[C@@H](N)CC(=O)O)C(=O)N[C@@H](C)C(=O)N[C@@H](C)C(=O)N[C@@H](CC(C)C)C(=O)N[C@H](C(=O)N[C@@H](CCC(=O)O)C(=O)N[C@@H](C)C(=O)N[C@@H](CC(C)C)C(=O)N[C@@H](CCCNC(=N)N)C(=O)N[C@H](C(=O)N[C@H](C(=O)N[C@@H](C)C(=O)O)[C@@H](C)CC)C(C)C)[C@@H](C)O" and give its measured Response (SFC/10^6) IL-5.
## Output 540

## Input Request the reported Response (SFC/10^6) IL-5 associated with "CSCC[C@H](NC(=O)[C@@H]1CCCN1C(=O)CNC(=O)[C@@H](NC(=O)[C@H](CC(C)C)NC(=O)[C@@H]1CCCN1C(=O)[C@H](CCCCN)NC(=O)[C@H](C)NC(=O)[C@H](CO)NC(=O)[C@H](CCCCN)NC(=O)[C@@H](NC(=O)[C@H](CCC(=O)O)NC(=O)[C@H](Cc1c[nH]c2ccccc12)NC(=O)[C@@H](N)CC(C)C)C(C)C)[C@@H](C)O)C(=O)N[C@@H](CC(N)=O)C(=O)O"
## Output 1010

## Input State the recorded Response (SFC/10^6) IL-5 for this entry: "CC[C@H](C)[C@H](NC(=O)[C@H](Cc1ccccc1)NC(=O)[C@H](CCCCN)NC(=O)[C@H](Cc1ccc(O)cc1)NC(=O)[C@@H](NC(=O)[C@H](CCC(=O)O)NC(=O)[C@H](Cc1ccc(O)cc1)NC(=O)[C@H](C)NC(=O)CN)[C@@H](C)O)C(=O)N1CCC[C@H]1C(=O)N[C@@H](CO)C(=O)N[C@@H](CC(C)C)C(=O)N[C@@H](CCC(=O)O)C(=O)N[C@@H](C)C(=O)N[C@@H](C)C(=O)O"
## Output 247
